List of IC50 values.
Target: human Y2R (Homo sapiens, UniProt P49146)
Sequence (P49146 whole entry): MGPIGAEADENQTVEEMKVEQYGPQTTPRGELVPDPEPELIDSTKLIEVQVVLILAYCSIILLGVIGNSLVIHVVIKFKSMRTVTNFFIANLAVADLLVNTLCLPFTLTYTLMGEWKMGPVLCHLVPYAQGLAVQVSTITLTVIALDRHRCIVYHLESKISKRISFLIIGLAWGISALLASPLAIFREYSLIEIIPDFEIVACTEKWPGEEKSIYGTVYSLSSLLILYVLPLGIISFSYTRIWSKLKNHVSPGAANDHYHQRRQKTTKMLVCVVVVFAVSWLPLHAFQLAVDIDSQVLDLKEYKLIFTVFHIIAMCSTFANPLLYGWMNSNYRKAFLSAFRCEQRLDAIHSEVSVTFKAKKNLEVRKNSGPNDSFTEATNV
Assay: biochemical
Assay type: binding
Where a SMILES comes first, the peptide text is derived from it. [ ]: non-standard residue; d: D form. The star is where a group is joined. 1Naphthoyl = O=C(c1cccc2ccccc12)*; 2Naphthoyl = O=C(c1ccc2ccccc2c1)*; Cha = N[C@@H](CC1CCCCC1)C(=O)O; Aib = CC(C)(N)C(=O)O
measurementKind: IC50 (nM)

1. CC(C)C[C@H](NC(=O)[C@H](CC(N)=O)NC(=O)[C@H](CC1CCCCC1)NC(=O)[C@H](CC1CCCCC1)NC(=O)[C@H](Cc1c[nH]cn1)NC(=O)[C@H](CCCNC(=N)N)NC(=O)c1cccc2ccccc12)C(=O)NC(C)(C)C(=O)N[C@H](C(=O)N[C@@H](CCCNC(=N)N)C(=O)N[C@@H](CCC(N)=O)C(=O)N[C@@H](CCCNC(=N)N)C(=O)N[C@@H](CC1CCCCC1)C(N)=O)[C@@H](C)O [Compound 25] (1Naphthoyl-RH[Cha][Cha]NL[Aib]TRQR[Cha]-NH2) ... 18
2. CC(C)C[C@H](NC(=O)[C@H](CC(N)=O)NC(=O)[C@H](CC1CCCCC1)NC(=O)[C@H](CC1CCCCC1)NC(=O)[C@H](Cc1c[nH]cn1)NC(=O)[C@H](CCCNC(=N)N)NC(=O)c1ccc2ccccc2c1)C(=O)NC(C)(C)C(=O)N[C@H](C(=O)N[C@@H](CCCNC(=N)N)C(=O)N[C@@H](CCC(N)=O)C(=O)N[C@@H](CCCNC(=N)N)C(=O)N[C@@H](CC1CCCCC1)C(N)=O)[C@@H](C)O [Compound 26] (2Naphthoyl-RH[Cha][Cha]NL[Aib]TRQR[Cha]-NH2) ... 26
